Value source: patent US20220025010A1

# systemTested: T1, human GIP receptor (human, UniProt P48546 22-466)
# T1 sequence (looked up): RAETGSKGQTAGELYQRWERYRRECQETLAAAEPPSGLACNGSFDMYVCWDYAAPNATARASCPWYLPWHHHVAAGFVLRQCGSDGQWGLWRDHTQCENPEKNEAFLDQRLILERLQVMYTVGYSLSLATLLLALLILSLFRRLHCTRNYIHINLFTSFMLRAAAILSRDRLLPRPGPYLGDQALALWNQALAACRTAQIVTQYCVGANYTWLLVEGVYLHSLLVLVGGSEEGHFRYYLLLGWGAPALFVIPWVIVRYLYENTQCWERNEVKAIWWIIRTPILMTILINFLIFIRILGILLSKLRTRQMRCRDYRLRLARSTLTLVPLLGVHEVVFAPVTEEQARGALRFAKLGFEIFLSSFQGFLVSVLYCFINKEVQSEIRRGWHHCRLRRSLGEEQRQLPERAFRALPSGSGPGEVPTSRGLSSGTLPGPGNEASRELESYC
# testName: cell-based or functional assay
*1 amine or outer side, *2 acyl side, *3 side chain or, on linkers, in order; H or OH if unused. Where no end group is shown, it is not given here. Side-chain parts run from the residue outwards. [ ]: non-standard residue; d: D form. The star is where a group is joined. C18 diacid = O=C(O)CCCCCCCCCCCCCCCCC(=O)*; C16 diacid = O=C(O)CCCCCCCCCCCCCCC(=O)*; γGlu = O=C(O)[C@H](CCC(=O)[*:2])N[*:1]; pGlu = O=C1CC[C@@H](C(=O)O)N1; AEEA = NCCOCCOCC(=O)O
Parameter DiscoveRx cAMP antagonism log IC50: see the listing below.

binder	DiscoveRx cAMP antagonism log IC50
[pGlu]GTFISDYSIAMDRIK([AEEA-AEEA-AEEA-γGlu-C18 diacid])QQDFVNWLLAQR-NH2 [AT382]	-8.7 log M
EGTFISDYSIAMDRIK([AEEA-AEEA-γGlu-C18 diacid])QQDFVNWLLAQR-NH2 (not fully specified (residue 1)) [AT377]	-7.7 log M
[pGlu]GTFISDYSIAMDRIK([AEEA-AEEA-AEEA-γGlu-C16 diacid])QQDFVNWLLAQR-NH2 [AT380]	-8.1 log M
TFISDYSIALDRIKQQDFVNWLLAQR-NH2 (not fully specified (residue 14); printed as TFISDYSIALDRIKQQDFVNWLLAQR-(AEEAc +γ-Glu)-C16-diacid/K18) [AT234]	-7.8 log M
